biological target: PDGF receptor (Rattus norvegicus); construct: cultured rat mesangial cells which are known to have the PDGF receptor; endogenous in cells; assay: PDGF receptor autophosphorylation inhibition in cultured rat mesangial cells; conditions: PDGF-BB 50 ng/ml
pIC50: −log10 of the molar value.
ENDPOINT_LABEL: pIC50

Recorded pIC50, per entry:
Enquiry: Would you mind telling me what pIC50 value was observed for COc1cc2nccc(Oc3ccc(NC(=O)Nc4ccc(C(F)(F)F)cc4)cc3)c2cc1OC ?
Return: 7.52

Enquiry: Would you mind telling me what pIC50 value was observed for COc1cc2nccc(Oc3ccc(NC(=O)Nc4ccc(Oc5ccc(F)cc5)nc4)cc3)c2cc1OC ?
Return: 7.54

P: COc1cc2nccc(Oc3ccc(C(=O)c4ccc(N5CCCC5)cc4)cc3)c2cc1OC
Q: COc1cc2nccc(Oc3ccc(NC(=O)Nc4ccc(O)cc4)cc3)c2cc1OC
Enquiry: Out of P and Q , name the one with the higher pIC50. Returns: label corresponding to the selected item.
Return: Q
(Q: 8.10, P: 7.49)

---

molecular target: PDGF receptor (Rattus norvegicus, UniProt Q05030); construct: cultured rat mesangial cells which are known to have the PDGF receptor; endogenous in cells; experiment: PDGF receptor autophosphorylation inhibition in cultured rat mesangial cells; details: PDGF-BB 50 ng/ml
Sequence (Q05030 32-1097): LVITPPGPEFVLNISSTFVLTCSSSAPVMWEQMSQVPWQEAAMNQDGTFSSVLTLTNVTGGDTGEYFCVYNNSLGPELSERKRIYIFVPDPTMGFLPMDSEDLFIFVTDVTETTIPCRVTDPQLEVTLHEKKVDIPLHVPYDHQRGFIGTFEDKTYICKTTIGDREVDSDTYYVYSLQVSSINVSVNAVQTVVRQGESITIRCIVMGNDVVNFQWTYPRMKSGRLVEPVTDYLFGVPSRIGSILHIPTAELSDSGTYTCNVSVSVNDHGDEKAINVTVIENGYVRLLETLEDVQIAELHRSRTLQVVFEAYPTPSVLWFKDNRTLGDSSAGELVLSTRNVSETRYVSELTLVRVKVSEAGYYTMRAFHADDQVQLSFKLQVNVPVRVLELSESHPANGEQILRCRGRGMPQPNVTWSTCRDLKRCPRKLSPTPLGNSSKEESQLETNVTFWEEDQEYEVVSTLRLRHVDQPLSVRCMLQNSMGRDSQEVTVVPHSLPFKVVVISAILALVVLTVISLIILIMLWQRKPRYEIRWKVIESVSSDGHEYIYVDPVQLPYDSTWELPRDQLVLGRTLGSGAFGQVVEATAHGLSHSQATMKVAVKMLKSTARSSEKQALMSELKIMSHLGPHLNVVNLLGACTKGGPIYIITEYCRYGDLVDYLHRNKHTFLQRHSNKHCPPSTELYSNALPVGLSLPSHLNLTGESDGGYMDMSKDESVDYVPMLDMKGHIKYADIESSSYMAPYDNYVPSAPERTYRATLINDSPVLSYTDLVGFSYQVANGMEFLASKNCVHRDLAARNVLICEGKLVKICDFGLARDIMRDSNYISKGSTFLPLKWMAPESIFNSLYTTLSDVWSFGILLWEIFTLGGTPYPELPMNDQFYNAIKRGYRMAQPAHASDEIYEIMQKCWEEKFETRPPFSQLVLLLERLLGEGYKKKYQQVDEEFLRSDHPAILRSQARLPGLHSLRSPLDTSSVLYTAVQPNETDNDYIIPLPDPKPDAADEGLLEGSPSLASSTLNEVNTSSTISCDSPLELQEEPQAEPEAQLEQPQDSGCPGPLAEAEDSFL
ENDPOINT_LABEL: IC50 (nM)

Enquiry: Would you mind telling me what IC50 value was observed for COc1cc2nccc(Oc3ccc(NC(=O)Nc4ccccc4C(C)C)cc3)c2cc1OC ?
Return: 11

A: CCOC(=O)c1cccc(NC(=O)Nc2ccc(Oc3ccnc4cc(OC)c(OC)cc34)cc2)c1
B: COc1cc2nccc(Oc3ccc(NC(=O)Nc4cccc5ccccc45)cc3)c2cc1OC
C: COc1cc2nccc(Oc3ccc(C(=O)c4ccc(C(F)(F)F)cc4)cc3)c2cc1OC
Enquiry: Rank by IC50 (largest to smallest). // respond by listing labels in the order requested
Return: C, A, B

---

molecular target: PDGF receptor (Rattus norvegicus); construct: cultured rat mesangial cells which are known to have the PDGF receptor; endogenous in cells; assay: PDGF receptor autophosphorylation inhibition in cultured rat mesangial cells; settings: PDGF-BB 50 ng/ml
pIC50: −log10 of the molar value.
ENDPOINT_LABEL: pIC50

Recorded pIC50, per entry:
Enquiry: Would you mind telling me what pIC50 value was observed for CCCNC(=O)Nc1ccc(Oc2ccnc3cc(OC)c(OC)cc23)cc1 ?
Return: 7.85

Enquiry: Would you mind telling me what pIC50 value was observed for COc1cc2nccc(Oc3ccc(NC(=O)Nc4ccc5c(c4)OCCO5)cc3)c2cc1OC ?
Return: 8.52

Enquiry: Would you mind telling me what pIC50 value was observed for COc1cc2nccc(Oc3cccc(C(C)=O)c3)c2cc1OC ?
Return: 6.35

Enquiry: Would you mind telling me what pIC50 value was observed for COCCNC(=O)Nc1ccc(Oc2ccnc3cc(OC)c(OC)cc23)cc1 ?
Return: 7.89

I: COc1cc2nccc(Oc3ccc(NC(=O)Nc4ccccc4SC)cc3)c2cc1OC
II: COc1cc2nccc(Oc3ccc(NC(=O)Nc4cccc(Cl)c4)cc3)c2cc1OC
III: COc1cc2nccc(Oc3ccc(NC(=O)Nc4ccc(C(=O)c5ccccc5)cc4)cc3)c2cc1OC
Enquiry: // smallest pIC50 at index 0, largest at the end // respond by listing labels in the order requested
Return: II, III, I
(II: 6.82, III: 7.10, I: 8.30)

1: COc1cc2nccc(Oc3ccc(NC(=O)NC4CCCCC4)cc3)c2cc1OC
2: COc1cc2nccc(Oc3ccc(NC(=O)C4CCCC4)cc3)c2cc1OC
3: COc1cc2nccc(Oc3ccc(NC(=O)c4ccc([N+](=O)[O-])cc4)cc3)c2cc1OC
4: COc1cc2nccc(Oc3ccc(NC(=O)Nc4ccccc4N)cc3)c2cc1OC
Enquiry: Rank by pIC50 (largest to smallest). // respond by listing labels in the order requested
Return: 4, 1, 3, 2

I: COc1ccc(OC)c(NC(=O)Nc2ccc(Oc3ccnc4cc(OC)c(OC)cc34)cc2)c1
II: COc1ccc(NC(=O)N(C)c2ccc(Oc3ccnc4cc(OC)c(OC)cc34)cc2)cc1
Enquiry: Pick one, I or II : lowest reported pIC50. Returns: label corresponding to the selected item.
Return: I
(I: 8.15, II: 8.40)
